Target: T1, human soluble IL-6R (human, UniProt P08887 20-357)
T1 sequence: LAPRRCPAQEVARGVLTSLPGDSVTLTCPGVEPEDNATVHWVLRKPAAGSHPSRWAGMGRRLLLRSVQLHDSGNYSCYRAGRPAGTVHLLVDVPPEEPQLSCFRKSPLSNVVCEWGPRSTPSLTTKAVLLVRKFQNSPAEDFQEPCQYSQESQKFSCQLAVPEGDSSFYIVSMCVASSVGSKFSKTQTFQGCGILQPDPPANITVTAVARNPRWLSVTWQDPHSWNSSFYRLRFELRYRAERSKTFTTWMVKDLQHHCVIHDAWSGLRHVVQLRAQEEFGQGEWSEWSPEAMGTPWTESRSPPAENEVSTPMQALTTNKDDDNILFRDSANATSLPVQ
Test: cell-based or functional assay
endpoint name: Classical:trans signalling ratio intracellular signalling (ratio)
Hi! Could you send only the number? It should be in ratio, unit omitted.

Request: What value of Classical:trans signalling ratio intracellular signalling has been recorded for this entry: candidate anti-IL-6R Fab clone 09 (Fab, V domains shown) VH: EVQLVESGGDLVQPGGSLKLSCAASGFTFSNYGMSWVRQTPDKRLELVAAINSNGGSTYYPDSVKGRFTISRDNAKNTLYLQMSSLKSEDTAMYYCARDGNYVSDYWGQGTTLTVSS VL: DIVLTQSPASLAVSLGQRATISCRASESVDSYGNSFMHWYQQKPGQPPKLLIYLASNLESGVPARFSGSGSRTDFTLTIDPVEADDAATYYCQQNNEDPWTFGGGTKLEIK
Response: 2.2

Data provenance is patent US20260226179A1.
